# System: SK-OV-3
# Procedure summary: NCI tumour cell line growth inhibition, 48 h
Active and inactive are the calls of the source. Cut-off read from the data, not from the text of the source: active = GI50 up to about 1.1 µM and inactive = higher.
Kindly supply the reported GI50 values for the records listed here.

Request: Form entry - test system: SK-OV-3; read-out: GI50; compound: OCC1NCC(O)C(O)C1O (stereo not drawn)
Response: > 100 µM (inactive)

Request: Form entry - test system: SK-OV-3; read-out: GI50; compound: O=C(/C=N/O)Nc1cccc(Cl)c1I
Response: 28.5 µM (inactive)

Request: What GI50 appears in the records for this compound with SK-OV-3? CC(C)(C)/N=C1/CC(C)(C)c2ccccc2/C(=N\c2ccccc2)S1
Response: 57 µM (inactive)

Request: // fetch SK-OV-3 GI50 for Cc1c(C)c(S(=O)(=O)N(CCCCN)OCCCN)c(C)c2c1OC(C)(C)CC2
Response: 15.6 µM (inactive)

Request: // fetch SK-OV-3 GI50 for CC(C(=O)OCc1ccccc1)N(Cc1ccccc1)Cc1ccccc1 (stereo not drawn)
Response: > 100 µM (inactive)

Request: // map COc1ccc2c(c1)/C(=C\c1c(-c3ccccc3)nc3n1CCS3)C(=O)N2 to recorded GI50 (system: SK-OV-3)
Response: 12.7 µM (inactive)

Request: What measured GI50 is associated with COc1nc(C#CC(C)(C)C)nc(OC)n1 on SK-OV-3?
Response: 55 µM (inactive)

Request: Enter reported GI50 observed with SK-OV-3 for CC(C)NCC(O)c1cc(OCc2ccccc2)c(OCc2ccccc2)cc1NC(=O)CCC(=O)O (stereo not drawn)
Response: 14.9 µM (inactive)

Request: // fetch SK-OV-3 GI50 for O=C(/C=C/c1ccccc1)C[C@@H](O)C[C@@H]1CC=CC(=O)O1
Response: 14.3 µM (inactive)

Request: So what GI50 did c1ccc(-c2ccnc3c2ccc2c(-c4ccccc4)ccnc23)cc1 get with SK-OV-3?
Response: 2.65 µM (inactive)

Request: Checklist item: GI50 tested on SK-OV-3, entry CCOC(=O)C(NC(=O)Nc1ccccc1F)(OC)C(F)(F)F (stereo not drawn) , value?
Response: > 100 µM (inactive)

Request: Form: Entry = O=[N+]([O-])c1cccc(Cl)c1Oc1ccc(S(=O)(=O)N/C(=N\O)Nc2ccc(Cl)cc2)cc1 | System = SK-OV-3 | GI50 = ____
Response: 17.1 µM (inactive)

Request: Give GI50 (SK-OV-3) of the following compound: Cn1c(=O)c2nc(SCc3ccccn3)[nH]c2n(C)c1=S
Response: 27.7 µM (inactive)

* * *

# System: CAKI-1
# Procedure summary: NCI tumour cell line growth inhibition, 48 h
Active and inactive are the calls of the source. No stated cut-off is given here; in the data, active = GI50 up to about 1.1 µM and inactive = higher.
Pick one: true (1) = active, false (0) = inactive

Request: For CN(CC(=O)O)c1ccc(/C=C/c2ccnc3ccccc23)cc1 , what call appears in the results of this test?
Response: false (0)

Request: Answer briefly: the call reported for CC[C@@]1(O)C[C@H](OC2CC(N(C)C)C(OC3CC(O)C(OC4CC(O)C(O)C(C)O4)C(C)O3)C(C)O2)c2c(cc3c(c2O)C(=O)c2c(O)ccc(O)c2C3=O)[C@H]1C(=O)OC (some centres undefined) in this assay.
Response: true (1)

Request: Hi, sorry to bother you, what did the test record for COc1ccc(C2C3CCc4ccccc4C3=NN2S(=O)(=O)c2ccc(Cl)cc2)cc1 (centres undefined) ?
Response: false (0)

Request: Just curious, what result did C[n+]1c(/C=C/c2ccc(/C=N/NC(=O)c3ccc(C(=O)N/N=C/c4ccc(/C=C/c5cn6ccccc6[n+]5C)cc4)cc3)cc2)cn2ccccc21 get here?
Response: false (0)

Request: Returns: the outcome recorded for C=C1CCN2CC[C@@H](OC(=O)/C(C)=C\C)[C@@H]12 in this assay.
Response: false (0)

Request: Which result was noted for this molecule in the test: CC1=CC2C(=O)N(c3ccccc3)C(=O)C2CC1n1[nH]c(=O)n(Cc2ccccc2)c1=O (centres undefined)
Response: false (0)

Request: Please share the test call associated with COc1nc(C#CC(C)(C)C)nc(OC)n1 .
Response: false (0)

Request: How did this test come out for CN(C)/C=N/S(=O)(=O)c1nn2c(C=O)c(-c3cc4ccccc4oc3=O)nc2s1 ?
Response: false (0)

Request: What was the test verdict on COc1ccc(C(=O)CCN(C)C)c2ccccc12 ?
Response: false (0)

Request: I'd appreciate the recorded outcome for COC(=O)C(C)(C)NC(=O)C(Cc1ccccc1)Nc1ncnc2c1ncn2-c1ccc(OC)cc1 (centres undefined) from this test.
Response: false (0)

Request: // return assay outcome for C=CC[C@@]1(C(=O)OC)[C@H](Sc2ccccc2)C1(C)C
Response: false (0)

Request: For this molecule, state the assay outcome: COc1ccc(-c2onc(-c3c(C)cc(C)cc3C)c2C2=NCCN2)cc1
Response: false (0)

Request: Check the results log: what was the call for COc1ccc2oc(S(=O)(=O)N3CC(CCl)c4ccc(N)cc43)cc2c1 (centres undefined) ?
Response: true (1)

Request: Hey, what did the test say about NC1=NN(c2ccccc2)C(=O)C1C(=O)CCC(=O)Nc1cccc(C(F)(F)F)c1 (centres undefined) ?
Response: false (0)

Request: // param item: S=C(c1c[nH]c2ccccc12)N1CCOCC1 ; yields the recorded call
Response: false (0)

Request: How did this test come out for O=C(C[n+]1ccc2ccccc2c1)c1ccc2ccc3ccccc3c2c1 ?
Response: false (0)

Request: Which outcome was entered for the molecule CCCCON1C[C@H](OC(C)=O)C(OC(C)=O)[C@H](OC(C)=O)C1 (some centres undefined) in this test?
Response: false (0)

Request: Dear colleague, could you share the recorded outcome for Clc1nncc2sc(-c3ccccc3)nc12 when you have a moment?
Response: true (1)

Request: Recorded call for CCCCCCCCCCCCOC1C(COCCN2CCCCC2)OC2OC(C)(C)OC21 (centres undefined) ?
Response: false (0)

Request: # lookup: test call for C=C[C@@H]1C[C@]2(C(=O)OC)Cc3nc4ccccc4nc3CC(C(=O)OC)=C2O1
Response: false (0)

Request: Would you mind telling me which call this test gave N#CC(NNC(=O)c1ccccc1O)c1ccc(O)cc1 (centres undefined) ?
Response: false (0)

Request: Could you check what this test reported for CN1CCCC2(CCCc3ccccc32)C1 (centres undefined) ?
Response: false (0)

Request: Query: recorded result category for Cc1cc(C)c2c(n1)S(=O)(=O)N(CCCN1CCN(c3cccc(C(F)(F)F)c3)CC1)c1c-2nn(C)c1C in this test
Response: false (0)

Request: Recorded test call requested for Cc1ccc(C2CC(c3ccc([N+](=O)[O-])cc3)=Nc3ccccc3S2)cc1 (centres undefined)
Response: false (0)

Request: Which result was noted for this molecule in the test: CNS(=O)(=O)NN(C)S(=O)(=O)c1ccc(Cl)cc1
Response: false (0)

Request: Give the logged outcome of this assay for the following molecule: CC(C)C(Sc1nc(-c2ccccc2)c(-c2ccccc2)[nH]1)C(=O)N/N=C/c1ccc(Cl)cc1 (centres undefined)
Response: false (0)

Request: What was the test verdict on COc1ccc(C(=O)Cc2cc(OC)ccc2OC)cc1 ?
Response: false (0)

Request: Recorded test outcome, item C=C(C)C1Cc2c(cc(OC)c3c(=O)c4ccccc4n(C)c23)O1 (centres undefined)
Response: false (0)

Request: Please let me know the test result on file for O=C(c1ccc([N+](=O)[O-])cc1[N+](=O)[O-])N(/N=C/C=C/c1ccccc1)c1nnc(-c2ccccc2)c(-c2ccccc2)n1 .
Response: false (0)

Request: Per the records of this test, what outcome belongs to COc1cc(NCC2COc3c(ccc(OC)c3OC)C2=O)c([N+](=O)[O-])cc1OC (centres undefined) ?
Response: false (0)

Request: Per the records of this test, what outcome belongs to O=C(CCC(=O)Nc1ccc(Cl)c(Cl)c1)CC(=O)c1ccc(Cl)cc1 ?
Response: false (0)

Request: Outcome logged for O=C1c2ccccc2C(=O)c2c(NCC(O)CO)ccc(NCC(O)CO)c21 (centres undefined) in this assay:
Response: false (0)

Request: Just curious, what result did COc1cccc(C2SCc3nc4ccccc4n32)c1 (centres undefined) get here?
Response: false (0)

Request: Per the assay record, what outcome was assigned to O=C(c1ccc(Cl)cc1)c1ccc(OCCCOc2ccc(C(=O)c3ccc(Cl)cc3)cc2Cl)c(Cl)c1 ?
Response: false (0)

* * *

# Tested on: OVCAR-5
# Procedure summary: NCI tumour cell line growth inhibition, 48 h
Active and inactive are the calls of the source. Rule as the data show it: active = GI50 up to about 1.1 µM and inactive = higher.
Measurement name: GI50

Request: Field request: GI50 | item: COc1ccc(C(=O)Cc2cc(OC)ccc2OC)cc1
Response: > 100 µM (inactive)

Request: Which GI50 is listed for CNC(=S)c1nnsc1N ?
Response: > 100 µM (inactive)

Request: For the compound shown here, CN(c1ccccc1)S(=O)(=O)c1ccc([N+](=O)[O-])cc1 , give the reported GI50.
Response: > 100 µM (inactive)

Request: Quick one: GI50 for O=[N+]([O-])c1cccc(Cl)c1Oc1ccc(S(=O)(=O)N/C(=N\O)Nc2ccc(Cl)cc2)cc1 ?
Response: 17 µM (inactive)

Request: Data request, read-out GI50, for COc1c2c(cc3c1OCO3)[C@]13C=C[C@H](OC)C[C@H]1N(C2)CC3O (some centres undefined)
Response: > 100 µM (inactive)

Request: Requested field: GI50. Item: Cc1c2c(c(C)c3c4c(oc13)CCCC4)C=NCC2
Response: 16.8 µM (inactive)

Request: Bench note: what GI50 did CC(C)(C)/N=C1/CC(C)(C)c2ccccc2/C(=N\c2ccccc2)S1 show?
Response: 37.9 µM (inactive)

Request: Find the recorded GI50 belonging to Cc1ccc(S(=O)(=O)NC(=O)NC23CC4CC(CC(F)(C4)C2)C3)cc1 and report it.
Response: > 100 µM (inactive)

Request: Recorded GI50 of COc1ccc(NN=C2C(=O)CCC2=O)cc1 , please.
Response: > 100 µM (inactive)

Request: What does the data say about its GI50? Entry: OCCN1CCN(c2nc(N3CCCC3)c3nc(Cl)c(NCc4ccccc4)nc3n2)CC1
Response: 13.1 µM (inactive)

Request: For the compound shown here, COc1cc2c3c(c1OC)Oc1ccc(cc1)CC1c4c(cc(OC)c(OC)c4Oc4ccc(cc4)CC3N(C)CC2)CCN1C (centres undefined) , give the reported GI50.
Response: 56.6 µM (inactive)

Request: State the recorded GI50 for this entry: CNS(=O)(=O)NN(C)S(=O)(=O)c1ccc(C)cc1
Response: > 100 µM (inactive)

Request: Please give the measured GI50 for this compound: COc1ccc(Cc2cc(OC)c(OC)c(OC)c2)cc1
Response: 8.83 µM (inactive)

Request: Which GI50 value belongs to O=C(c1ccc(Cl)cc1)N(C(=O)N1CCCCC1)c1ccccc1 ?
Response: > 100 µM (inactive)
